Data provenance: ChEMBL document CHEMBL2202954

System: T47D
Test: Cytotoxicity against human T47D cells assessed as cellular growth at 10 uM by SRB assay
Assay type: functional
Note to self: use yes (1) only for Activity readings below 80%; a reading exactly at 80% still gets no (0).

structure: Oc1ccccc1-c1nc(-c2cccs2)no1
assignedLabel: yes (1)
//
structure: CC1(C)CC(=O)c2cc3c(N)c(C(=O)Nc4ccc(Cl)cc4)sc3nc2C1
assignedLabel: no (0)
//
structure: Cc1ccc(NC(=O)c2sc3nc(-c4cccs4)ccc3c2N)cc1C
assignedLabel: no (0)
//
structure: CC1(C)CC(=O)c2cc3c(N)c(C(=O)Nc4ccccc4Cl)sc3nc2C1
assignedLabel: no (0)
//
structure: c1ccc(-c2nc(-c3cccs3)no2)cc1
assignedLabel: yes (1)

Continue with the next compound.
Does O=C(Nc1nc2ccc(Cl)cc2s1)c1ccc(Cl)cc1Cl have Activity strictly under 80%? no (0)
